- System: Plasmodium berghei
- MEASUREMENT_NOTES: Increase in mean survival time in Plasmodium berghei inoculated mice (Mus musculus) following 40 mg/kg administration
- Type: functional
The molecules listed here are annotated with their increase in mean survival time.
QUANTITY_NAME: increase in mean survival time (days)

> print(dat)
                                   molecule                   quantity.name  experimental.result
1  CCOC(=O)N1CCN(/C(S)=N/N=C(\C)c2cccc[n+]2[O-])CC1  increase in mean survival time                  4.7
2   C/C(=N\N=C(/S)N1CCCCCC1)c1cccc[n+]1[O-]  increase in mean survival time                  0.9
3  CC(N/N=C(\S)N1CCCCC1)c1cccc[n+]1[O-] (stereo not given)  increase in mean survival time                  0.2
4  C/C(=N\N=C(/S)N1CC2CCC(CC2)C1)c1cccc[n+]1[O-]  increase in mean survival time                 -0.7
5  CC(N/N=C(\S)N1CCCC1)c1cccc[n+]1[O-] (stereo not given)  increase in mean survival time                  0.8
